Test system: PA-1
protocol summary: Primary qHTS to identify gynecologic anti-cancer compounds using libraries of approved drugs and bioactive compounds (AID 1345084); also: nearly all actives have a fitted effect of over 55% in size
measurement parameters: Gynecologic cancer cell panel viability, ATPlite luminescence, 48 h; series mostly up to 57.5 µM
Results filed as inconclusive are left out. Activity calls are given as the source filed them. Calls follow the shape of the dose curve; as a rule, active = well fitted cell-killing curve with a large enough effect; inconclusive = small, poorly fitted or top-dose-only effect, or effect the other way; inactive = flat fitted curve, though single readings scatter.
Outcomes: active, inactive

[
  {
    "molecule": "CCC(COC)n1nnc2c(Nc3ccc(OC)cc3C)nc(C)cc21 (stereo not given)",
    "discrete label": "inactive"
  },
  {
    "molecule": "COC(=O)[C@@]1(c2ccc(C)cc2)C[C@H]1CN1CCC(O)(c2ccccc2)CC1",
    "discrete label": "inactive"
  },
  {
    "molecule": "C=C(C)C1CC[C@]2(C(=O)O)CC[C@]3(C(=O)O)[C@H](CCC4[C@@]5(C)CC[C@H](O)C(C)(C)C5CC[C@]43C)C12 (stereo not given in full)",
    "discrete label": "inactive"
  },
  {
    "molecule": "COc1ccccc1NC(=O)OCC1CCN(C(=O)OC(C)(C)C)CC1",
    "discrete label": "inactive"
  },
  {
    "molecule": "C=C1CCC2C(C)(C(=O)O)CCCC2(C)C1CCC(C)CC(=O)O (stereo not given)",
    "discrete label": "inactive"
  },
  {
    "molecule": "CCOCCn1nc(CC)c2nc(N3CCC(C(=O)O)CC3)nc(Nc3cc(C)ccn3)c21",
    "discrete label": "inactive"
  },
  {
    "molecule": "C=C1CC[C@H]2[C@@](C)(CCC(O)[C@@]2(C)CO)[C@@H]1CCC1=CCOC1=O (stereo not given in full)",
    "discrete label": "inactive"
  },
  {
    "molecule": "CCCCNc1ncc2c(-c3ccc(CN4CCN(C)CC4)cc3)cn(C3CCC(O)CC3)c2n1 (stereo not given)",
    "discrete label": "active"
  },
  {
    "molecule": "CC(=O)O[C@@H]1C[C@@H](OC(C)=O)C(C)(C)/C=C/[C@H](C)[C@H](OC(C)=O)[C@@]2(O)C[C@H](C)[C@H](OC(=O)c3ccccc3)[C@@H]2/C=C/1C",
    "discrete label": "inactive"
  },
  {
    "molecule": "O=C(/C=C/c1ccc(O)cc1)OC1[C@H](O)CC(O)(C(=O)O)C[C@H]1O (stereo not given in full)",
    "discrete label": "inactive"
  },
  {
    "molecule": "CC(C)CC1NC(=O)C(C)NC(=O)C(CC(C)C)OC(=O)CCCNC1=O (stereo not given)",
    "discrete label": "inactive"
  },
  {
    "molecule": "Cc1cc2c(c(=O)[nH]1)OC(C(O)CC(C)C)O2 (stereo not given)",
    "discrete label": "inactive"
  },
  {
    "molecule": "O=C1NC(Cc2c[nH]c3ccccc23)C(=O)NC1Cc1cnc[nH]1 (stereo not given)",
    "discrete label": "inactive"
  },
  {
    "molecule": "CCC(CC)C(=O)Nc1sc2c(c1C#N)CCC(C(C)(C)CC)C2 (stereo not given)",
    "discrete label": "inactive"
  },
  {
    "molecule": "CC(C)[C@H]1CC[C@@]2(O)COC(=O)[C@H]2[C@@H]1/C=C(\\CO)C(=O)O",
    "discrete label": "inactive"
  },
  {
    "molecule": "C=C[C@]1(C)C=C2CCC3C(C)(CCC[C@@]3(C)C(=O)O)C2CC1 (stereo not given in full)",
    "discrete label": "inactive"
  },
  {
    "molecule": "C/C=C(/COC(=O)/C(C)=C/C)C(=O)OC(CC)c1ccc(OC)c(OC)c1 (stereo not given)",
    "discrete label": "inactive"
  },
  {
    "molecule": "CCCC(=O)NCCc1csc(-c2ccc(Cl)cc2)n1",
    "discrete label": "inactive"
  },
  {
    "molecule": "C[C@@H]1C(=O)OC[C@H]2C(C(=O)O)=C[C@@H]3CC(C)(C)C[C@]312",
    "discrete label": "inactive"
  },
  {
    "molecule": "O=C(O)CC1CCC(c2ccc(-c3ccc4nc(C(=O)NCc5ccc(OC(F)(F)F)cc5)cn4c3)cc2)CC1 (stereo not given)",
    "discrete label": "inactive"
  }
]
